# Test system: Kunming mice
# method summary: Hot Plate Method in mice (antalgic effect)
# Type: in vivo
# protocol conditions: Mus musculus, sc, 40 mg/kg, subcutaneous injection at neck, 1 hour after dosing, hot plate 55.5° C., read-out: Increasing rate of pain threshold (%)
Counter-ions that a name gives are not always drawn.
Overview of reported change in vivo at 40 mg/kg across a group of compounds:
quantity kind: change in vivo at 40 mg/kg

>>> observed_result("CC(c1ccc(N2CCOCC2)cc1)N1CCC(Cl)(CC(=O)c2ccccc2)CC1 (stereo not shown) [IX-7, hydrochloride]")
"130%"
>>> observed_result("O=C(CC1(O)CCN(Cc2ccc(F)cc2)CC1)c1ccccc1 [III-3, hydrochloride]")
"29.4%"
>>> observed_result("O=C(CC1(O)CCN(Cc2ccc([N+](=O)[O-])cc2)CC1)c1ccccc1 [III-4, hydrochloride]")
"15.9%"
>>> observed_result("COc1ccc(C(C)N2CCC(F)(CC(=O)c3ccccc3)CC2)cc1 (stereo not shown) [IX-1, hydrochloride]")
"156%"
>>> observed_result("COc1ccc(CN2CCC(O)(CC(=O)c3ccccc3)CC2)cc1.Cl [III-15, hydrochloride]")
"260%"
>>> observed_result("O=C(CC1(O)CCN(Cc2ccccc2)CC1)c1ccccc1 [III-1, hydrochloride]")
"148%"
>>> observed_result("Nc1ccc(CN2CCC(O)(CC(=O)c3ccccc3)CC2)cc1 [III-5, hydrochloride]")
"190%"
